Entry source: ChEMBL document CHEMBL1914368

# EXPERIMENTAL_SYSTEM: Tyrosine-protein kinase Lyn (Homo sapiens)
# Sequence (P07948 whole entry): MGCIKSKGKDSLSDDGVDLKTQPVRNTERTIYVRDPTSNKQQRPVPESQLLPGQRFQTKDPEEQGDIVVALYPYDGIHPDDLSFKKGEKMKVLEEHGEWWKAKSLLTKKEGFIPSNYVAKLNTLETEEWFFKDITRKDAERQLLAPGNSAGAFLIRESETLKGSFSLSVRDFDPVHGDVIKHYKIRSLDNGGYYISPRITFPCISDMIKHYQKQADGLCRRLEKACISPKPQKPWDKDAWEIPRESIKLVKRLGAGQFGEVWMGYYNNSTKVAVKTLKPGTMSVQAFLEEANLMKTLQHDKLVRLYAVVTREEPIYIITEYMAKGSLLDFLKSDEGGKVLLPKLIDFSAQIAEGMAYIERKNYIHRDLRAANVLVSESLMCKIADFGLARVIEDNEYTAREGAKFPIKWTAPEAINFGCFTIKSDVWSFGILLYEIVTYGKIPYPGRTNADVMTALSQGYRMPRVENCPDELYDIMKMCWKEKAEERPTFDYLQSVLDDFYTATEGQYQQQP
# PROTOCOL_NOTES: Inhibition of LYN-A expressed in Sf9 cells after 60 mins by TR-FRET Assay
pIC50: −log10 of the molar value.
ENDPOINT: pIC50

Look over these answered cases.
1) Cc1cc(F)ccc1Nc1nc2cc(F)c(N(C)C(=O)/C=C/CN(C)C)cc2n2cncc12 | 5.46
2) Cc1cc(F)ccc1Oc1nc2cc(F)c(N(C)C(=O)/C=C/CN(C)C)cc2n2cncc12 | 4.98
3) Cc1ccc(F)cc1Nc1nc2cc(Cl)c(N(C)C(=O)/C=C/CN(C)C)cc2n2cncc12 | 5.47

A = Cc1ccccc1Nc1nc2cc(F)c(N(C)C(=O)/C=C/CN(C)C)cc2n2cncc12
B = Cc1cc(O)ccc1Nc1nc2ccc(N(C)C(=O)/C=C/CN(C)C)cc2n2cncc12
## Input Just curious, which one has the larger pIC50 reading, A or B ? Return value: the label identifying the chosen record.
## Output B
(B: 6.46, A: 6.20)

I = COc1cc2nc(Nc3ccccc3C)c3cncn3c2cc1NC(=O)/C=C/CN(C)C
II = Cc1ccc(NC(=O)c2cccc(C(F)(F)F)c2)cc1Nc1nc2ccc(N(C)C(=O)/C=C/CN(C)C)cc2n2cncc12
## Input Just curious, which one has the larger pIC50 reading, I or II ? Return value: the label identifying the chosen record.
## Output II

###

# EXPERIMENTAL_SYSTEM: Tyrosine-protein kinase BTK (Homo sapiens)
# Sequence (Q06187 whole entry): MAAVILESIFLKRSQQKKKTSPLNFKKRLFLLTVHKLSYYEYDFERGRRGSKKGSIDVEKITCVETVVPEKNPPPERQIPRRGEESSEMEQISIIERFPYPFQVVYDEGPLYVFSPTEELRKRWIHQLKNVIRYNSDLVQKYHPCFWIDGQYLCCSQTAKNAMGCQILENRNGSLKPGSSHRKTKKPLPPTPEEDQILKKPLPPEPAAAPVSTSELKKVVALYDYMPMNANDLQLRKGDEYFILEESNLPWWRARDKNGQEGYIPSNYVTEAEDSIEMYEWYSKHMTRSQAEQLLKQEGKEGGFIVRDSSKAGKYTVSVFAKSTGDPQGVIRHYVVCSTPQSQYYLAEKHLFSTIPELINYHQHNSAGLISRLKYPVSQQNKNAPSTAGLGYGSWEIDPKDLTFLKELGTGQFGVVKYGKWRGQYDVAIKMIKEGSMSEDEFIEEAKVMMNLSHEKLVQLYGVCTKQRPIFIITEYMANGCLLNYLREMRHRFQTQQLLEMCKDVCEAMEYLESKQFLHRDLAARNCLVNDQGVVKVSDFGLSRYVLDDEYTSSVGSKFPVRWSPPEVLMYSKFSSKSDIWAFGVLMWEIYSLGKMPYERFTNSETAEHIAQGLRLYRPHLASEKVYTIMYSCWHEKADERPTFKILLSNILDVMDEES
# PROTOCOL_NOTES: Inhibition of human full-length BTK expressed in Sf9 cells using FAM-Srctide peptide as substrate after 60 mins by TR-FRET Assay
ENDPOINT: IC50 (nM)

Look over these answered cases.
1. Cc1ccc(Cl)cc1Nc1nc2ccc(N(C)C(=O)/C=C/CN(C)C)cc2n2cncc12 | 13.2
2. Cc1cc(F)ccc1Nc1nc2cc(Cl)c(N(C)C(=O)/C=C/CN(C)C)cc2n2cncc12 | 9.53
3. Cc1cc(F)ccc1Oc1nc2cc(F)c(N(C)C(=O)/C=C/CN(C)C)cc2n2cncc12 | 9.53
4. Cc1c(F)cccc1Nc1nc2ccc(N(C)C(=O)/C=C/CN(C)C)cc2n2cncc12 | 1.89
5. CNc1ccc2nc(Nc3cc(F)ccc3C)c3cncn3c2c1 | 72

I = COc1cc2nc(Nc3ccccc3C)c3cncn3c2cc1NC(=O)/C=C/CN(C)C
II = Cc1cc(F)ccc1Nc1nc2cc(F)c(N(C)C(=O)/C=C/CN(C)C)cc2n2cncc12
III = Cc1ccc(O)cc1Nc1nc2ccc(N(C)C(=O)/C=C/CN(C)C)cc2n2cncc12
IV = CNc1ccc2nc(Oc3ccc(F)cc3C)c3cncn3c2c1
V = Cc1cccc(O)c1Nc1nc2ccc(N(C)C(=O)/C=C/CN(C)C)cc2n2cncc12
## Input I would appreciate it if you could sort these 5 compounds by IC50, starting from the smallest number. # output: labels, in the requested order
## Output I, III, II, V, IV

###

# EXPERIMENTAL_SYSTEM: Aryl hydrocarbon receptor (Mus musculus)
# Sequence (P30561 whole entry): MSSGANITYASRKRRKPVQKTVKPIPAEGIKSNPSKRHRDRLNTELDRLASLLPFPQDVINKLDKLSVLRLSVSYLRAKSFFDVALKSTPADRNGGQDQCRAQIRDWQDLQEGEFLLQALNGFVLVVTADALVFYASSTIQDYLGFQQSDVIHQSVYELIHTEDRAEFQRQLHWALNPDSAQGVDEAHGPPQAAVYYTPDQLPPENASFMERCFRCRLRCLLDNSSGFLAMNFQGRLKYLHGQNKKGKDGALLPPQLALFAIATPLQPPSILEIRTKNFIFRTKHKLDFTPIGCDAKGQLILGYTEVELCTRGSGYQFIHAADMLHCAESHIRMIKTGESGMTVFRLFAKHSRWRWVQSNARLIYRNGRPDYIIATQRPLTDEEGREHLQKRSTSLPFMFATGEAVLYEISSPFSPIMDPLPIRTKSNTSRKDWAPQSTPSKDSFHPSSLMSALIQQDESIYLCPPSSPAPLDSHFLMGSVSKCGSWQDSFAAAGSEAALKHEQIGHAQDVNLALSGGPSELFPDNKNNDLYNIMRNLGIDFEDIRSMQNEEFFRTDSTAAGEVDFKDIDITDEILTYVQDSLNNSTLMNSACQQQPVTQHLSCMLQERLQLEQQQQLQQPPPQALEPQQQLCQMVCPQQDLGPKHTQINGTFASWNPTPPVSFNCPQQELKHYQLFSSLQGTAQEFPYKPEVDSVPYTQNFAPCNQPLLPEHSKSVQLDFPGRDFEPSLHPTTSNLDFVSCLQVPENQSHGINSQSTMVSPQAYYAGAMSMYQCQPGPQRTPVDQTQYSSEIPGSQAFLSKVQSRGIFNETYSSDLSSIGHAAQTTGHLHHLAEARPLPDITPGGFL
# PROTOCOL_NOTES: Agonist activity at Ah receptor in genetically engineered mouse cells expressing firefly luciferase gene by CALUX transactivational assay
Each record here notes measured EC50.

1. Cc1ccc(F)cc1Nc1nc2ccc(N(C)C(=O)/C=C/CN(C)C)cc2n2cncc12 | > 10 µM
2. Cc1ccccc1Nc1nc2cc(F)c(N(C)C(=O)/C=C/CN(C)C)cc2n2cncc12 | > 10 µM
3. Cc1ccc(F)cc1Nc1nc2cc(Cl)c(N(C)C(=O)/C=C/CN(C)C)cc2n2cncc12 | > 10 µM

Kindly consider the entry below.
## Input Recorded EC50 for Clc1cc2c(cc1Cl)Oc1cc(Cl)c(Cl)cc1O2 [2,3,7,8-TETRACHLORODIBENZO-P-DIOXIN] , please?
## Output 3e-05 µM
